- assayNotes: cells
- conditionSet: CHO, 24 h
- Description: Modulation of gamma-secretase-mediated cleavage of human APP expressed in CHO cells with human presenilin-1 assessed as inhibition of amyloid beta42 production after 24 hrs by ELISA
measuredProperty: pIC50
Recall that pIC50 is obtained by taking minus log10 of the concentration measured in molar.

Name the recorded pIC50 of the molecule listed here: CCCCC(Sc1nc(OCCc2ccsc2)cc(OCCc2ccsc2)n1)C(=O)O (stereo not drawn)
4.42

Name the recorded pIC50 of the molecule listed here: CCCCC(Sc1nc(OCCC(C)C)cc(OCCC(C)C)n1)C(=O)O (stereo not drawn)
4.55

Name the recorded pIC50 of the molecule listed here: CCCCC(Sc1nc(OCCc2ccc(C(F)(F)F)cc2)cc(OCCc2ccc(C(F)(F)F)cc2)n1)C(=O)O (stereo not drawn)
5.22

Name the recorded pIC50 of the molecule listed here: CC(C(=O)O)c1ccc2c(c1)[nH]c1ccc(Cl)cc12 (stereo not drawn)
3.52

Name the recorded pIC50 of the molecule listed here: COc1ccc2c(c1)c(CC(=O)O)c(C)n2C(=O)c1ccc(Cl)cc1
4.60

Name the recorded pIC50 of the molecule listed here: CCCCC(Sc1nc(OCCCc2ccccc2)cc(OCCCc2ccccc2)n1)C(=O)O (stereo not drawn)
4.51

Name the recorded pIC50 of the molecule listed here: CCCCC(Sc1nc(OCCc2ccc([N+](=O)[O-])cc2)cc(OCCc2ccc([N+](=O)[O-])cc2)n1)C(=O)O (stereo not drawn)
4.51

Name the recorded pIC50 of the molecule listed here: CCCCC(Sc1nc(OCCC2CCCCCC2)cc(OCCC2CCCCCC2)n1)C(=O)O (stereo not drawn)
4.95

Name the recorded pIC50 of the molecule listed here: C[C@@H](C(=O)O)c1ccc(-c2ccccc2)c(F)c1
3.52

Name the recorded pIC50 of the molecule listed here: CCCCC(Sc1nc(OCCCCc2ccccc2)cc(OCCCCc2ccccc2)n1)C(=O)O (stereo not drawn)
4.64

Name the recorded pIC50 of the molecule listed here: CCCCC(Sc1nc(OCCc2ccccc2)cc(OCCc2ccccc2)n1)C(=O)O (stereo not drawn)
4.64

Name the recorded pIC50 of the molecule listed here: CCCC[C@H](Sc1nc(OCCc2ccccc2)cc(OCCc2ccccc2)n1)C(=O)O
4.49

Name the recorded pIC50 of the molecule listed here: CCC(Sc1nc(OCCc2ccccc2)cc(OCCc2ccccc2)n1)C(=O)O (stereo not drawn)
4.38

Name the recorded pIC50 of the molecule listed here: CCCCC(Sc1nc(OCc2ccccc2)cc(OCc2ccccc2)n1)C(=O)O (stereo not drawn)
4.60

Name the recorded pIC50 of the molecule listed here: CCCCCCC(Sc1nc(OCCc2ccccc2)cc(OCCc2ccccc2)n1)C(=O)O (stereo not drawn)
4.52

###

Can you tell me Activity for the items I'm about to list?
- systemTested: Prostaglandin G/H synthase 1 (Ovis aries)
- Sequence (whole entry): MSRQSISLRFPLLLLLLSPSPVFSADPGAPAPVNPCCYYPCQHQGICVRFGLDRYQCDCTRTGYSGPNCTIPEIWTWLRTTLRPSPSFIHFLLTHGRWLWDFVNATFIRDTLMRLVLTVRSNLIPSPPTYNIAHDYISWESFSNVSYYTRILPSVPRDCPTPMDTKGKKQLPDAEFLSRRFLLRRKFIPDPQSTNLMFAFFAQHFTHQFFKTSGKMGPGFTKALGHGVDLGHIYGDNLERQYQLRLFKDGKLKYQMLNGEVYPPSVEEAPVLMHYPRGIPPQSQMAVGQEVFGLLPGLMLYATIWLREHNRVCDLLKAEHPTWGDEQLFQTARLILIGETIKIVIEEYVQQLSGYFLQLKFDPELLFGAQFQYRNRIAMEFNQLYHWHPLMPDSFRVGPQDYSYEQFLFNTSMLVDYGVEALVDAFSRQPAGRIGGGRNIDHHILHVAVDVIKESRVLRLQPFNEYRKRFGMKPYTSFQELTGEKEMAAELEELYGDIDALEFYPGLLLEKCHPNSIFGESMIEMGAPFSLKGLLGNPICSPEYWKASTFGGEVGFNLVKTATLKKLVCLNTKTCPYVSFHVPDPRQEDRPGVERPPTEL
- assayNotes: Inhibition of ovine COX1 assessed as residual activity at 10 uM after 5 mins

With Prostaglandin G/H synthase 1 (Ovis aries) as the test system, provide measured Activity for this compound: CCCCC(Sc1nc(OCCC2CCCCC2)cc(OCCC2CCCCC2)n1)C(=O)O (stereo not given)
52.7%

With Prostaglandin G/H synthase 1 (Ovis aries) as the test system, provide measured Activity for this compound: CCCCCCC(Sc1nc(OCCc2ccccc2)cc(OCCc2ccccc2)n1)C(=O)O (stereo not given)
61.8%

With Prostaglandin G/H synthase 1 (Ovis aries) as the test system, provide measured Activity for this compound: CCCC[C@H](Sc1nc(OCCc2ccccc2)cc(OCCc2ccccc2)n1)C(=O)O
83.5%

With Prostaglandin G/H synthase 1 (Ovis aries) as the test system, provide measured Activity for this compound: CCCCC(Sc1nc(OCCc2ccc(OC(F)(F)F)cc2)cc(OCCc2ccc(OC(F)(F)F)cc2)n1)C(=O)O (stereo not given)
73%

With Prostaglandin G/H synthase 1 (Ovis aries) as the test system, provide measured Activity for this compound: CCCCC(Sc1nc(OCCc2ccc(C#N)cc2)cc(OCCc2ccc(C#N)cc2)n1)C(=O)O (stereo not given)
88.8%

With Prostaglandin G/H synthase 1 (Ovis aries) as the test system, provide measured Activity for this compound: CCCCC(Sc1nc(OCCCCc2ccccc2)cc(OCCCCc2ccccc2)n1)C(=O)O (stereo not given)
78.8%

With Prostaglandin G/H synthase 1 (Ovis aries) as the test system, provide measured Activity for this compound: CCCCC(Sc1nc(OCCc2ccccc2)cc(OCCc2ccccc2)n1)C(=O)O (stereo not given)
64.2%

With Prostaglandin G/H synthase 1 (Ovis aries) as the test system, provide measured Activity for this compound: CCC(Sc1nc(OCCc2ccccc2)cc(OCCc2ccccc2)n1)C(=O)O (stereo not given)
84.6%

With Prostaglandin G/H synthase 1 (Ovis aries) as the test system, provide measured Activity for this compound: CCCCC(Sc1nc(OCCc2ccsc2)cc(OCCc2ccsc2)n1)C(=O)O (stereo not given)
76.6%

With Prostaglandin G/H synthase 1 (Ovis aries) as the test system, provide measured Activity for this compound: CCCCC(Sc1nc(OCCC2CCCCCC2)cc(OCCC2CCCCCC2)n1)C(=O)O (stereo not given)
56.1%

###

- systemTested: Prostaglandin G/H synthase 2 (Homo sapiens) (UniProt P35354)
- Sequence (P35354 whole entry): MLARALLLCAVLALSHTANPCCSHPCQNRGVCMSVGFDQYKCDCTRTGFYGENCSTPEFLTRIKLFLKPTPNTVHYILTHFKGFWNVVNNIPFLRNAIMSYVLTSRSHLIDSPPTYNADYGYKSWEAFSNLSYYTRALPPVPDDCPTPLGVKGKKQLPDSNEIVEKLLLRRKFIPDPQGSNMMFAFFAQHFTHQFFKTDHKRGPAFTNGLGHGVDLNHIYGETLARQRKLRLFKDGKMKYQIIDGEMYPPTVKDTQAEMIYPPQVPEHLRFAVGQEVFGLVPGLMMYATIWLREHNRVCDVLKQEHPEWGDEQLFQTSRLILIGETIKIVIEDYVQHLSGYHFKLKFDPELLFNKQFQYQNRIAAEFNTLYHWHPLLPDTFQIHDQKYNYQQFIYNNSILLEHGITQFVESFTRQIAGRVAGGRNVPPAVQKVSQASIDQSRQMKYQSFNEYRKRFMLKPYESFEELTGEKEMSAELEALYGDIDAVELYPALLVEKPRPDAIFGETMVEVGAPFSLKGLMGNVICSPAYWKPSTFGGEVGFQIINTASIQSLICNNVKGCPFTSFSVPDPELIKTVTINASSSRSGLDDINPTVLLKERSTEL
- assayNotes: Inhibition of human recombinant COX2 assessed as residual activity at 10 uM after 5 mins
Can you tell me Activity for the items I'm about to list?
Write the value in % as a bare number.

Name the recorded Activity of the compound listed here: O=C(O)CSc1nc(OCCc2ccccc2)cc(OCCc2ccccc2)n1
91.7

Name the recorded Activity of the compound listed here: CCCCC(Sc1nc(OCCc2ccc(OC)cc2)cc(OCCc2ccc(OC)cc2)n1)C(=O)O (centres undefined)
94.6

Name the recorded Activity of the compound listed here: CCCCC(Sc1nc(OCCC(C)C)cc(OCCC(C)C)n1)C(=O)O (centres undefined)
80.5

Name the recorded Activity of the compound listed here: CCCCC(Sc1nc(OCCc2ccc([N+](=O)[O-])cc2)cc(OCCc2ccc([N+](=O)[O-])cc2)n1)C(=O)O (centres undefined)
91.6

###

- systemTested: Peroxisome proliferator-activated receptor gamma (Homo sapiens)
- assayNotes: Agonist activity at human PPARgamma-LBD expressed in COS7 cells co-transfected with Gal4 by luciferase based transactivation assay relative to pioglitazone
- Format: functional, cell-based
- conditionSet: COS-7
measuredProperty: Emax (%)
Write the value in % as a bare number.

Name the recorded Emax of the compound listed here: CCCCC(Sc1nc(OCCC2CCCCC2)cc(OCCC2CCCCC2)n1)C(=O)O (centres undefined)
71

Name the recorded Emax of the compound listed here: CCCCC(Sc1nc(OCCc2ccc(C)cc2)cc(OCCc2ccc(C)cc2)n1)C(=O)O (centres undefined)
63

Name the recorded Emax of the compound listed here: CCCCC(Sc1nc(OCCc2ccccc2)cc(OCCc2ccccc2)n1)C(=O)O (centres undefined)
61

Name the recorded Emax of the compound listed here: CCC(Sc1nc(OCCc2ccccc2)cc(OCCc2ccccc2)n1)C(=O)O (centres undefined)
57

###

Can you tell me EC50 for the items I'm about to list?
- systemTested: Peroxisome proliferator-activated receptor gamma (Homo sapiens, UniProt P37231)
- Sequence (P37231 whole entry, the tested form may be a part): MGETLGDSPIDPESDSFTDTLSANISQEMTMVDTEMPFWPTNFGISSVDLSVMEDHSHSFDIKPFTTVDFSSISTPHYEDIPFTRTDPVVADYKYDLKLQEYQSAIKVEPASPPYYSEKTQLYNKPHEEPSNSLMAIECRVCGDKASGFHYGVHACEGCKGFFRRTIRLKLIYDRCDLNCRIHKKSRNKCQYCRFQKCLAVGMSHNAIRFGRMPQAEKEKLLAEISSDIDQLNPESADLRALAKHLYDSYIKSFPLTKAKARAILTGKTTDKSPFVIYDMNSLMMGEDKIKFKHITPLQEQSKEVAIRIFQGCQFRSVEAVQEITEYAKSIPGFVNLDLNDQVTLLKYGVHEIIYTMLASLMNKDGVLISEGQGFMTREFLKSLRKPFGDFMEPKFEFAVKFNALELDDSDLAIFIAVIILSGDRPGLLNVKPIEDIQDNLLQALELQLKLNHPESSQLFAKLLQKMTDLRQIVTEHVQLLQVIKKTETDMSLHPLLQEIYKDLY
- assayNotes: Agonist activity at human PPARgamma-LBD expressed in COS7 cells co-transfected with Gal4 by luciferase based transactivation assay

Name the recorded EC50 of the molecule listed here: CCCCC(Sc1nc(OCCCc2ccccc2)cc(OCCCc2ccccc2)n1)C(=O)O (stereo unspecified)
8.9 µM

Name the recorded EC50 of the molecule listed here: CCCCC(Sc1nc(OCCC2CCCCC2)cc(OCCC2CCCCC2)n1)C(=O)O (stereo unspecified)
6.6 µM

Name the recorded EC50 of the molecule listed here: O=C(O)CSc1nc(OCCc2ccccc2)cc(OCCc2ccccc2)n1
3.7 µM

Name the recorded EC50 of the molecule listed here: CCCCC(Sc1nc(OCCc2ccccc2)cc(OCCc2ccccc2)n1)C(=O)O (stereo unspecified)
8.3 µM

Name the recorded EC50 of the molecule listed here: CCCCC(Sc1nc(OCCc2ccc(C)cc2)cc(OCCc2ccc(C)cc2)n1)C(=O)O (stereo unspecified)
7.5 µM

Name the recorded EC50 of the molecule listed here: CCCCC(Sc1nc(OCCc2ccc(C#N)cc2)cc(OCCc2ccc(C#N)cc2)n1)C(=O)O (stereo unspecified)
7 µM

Where do the numbers come from? From ChEMBL document CHEMBL1177708.
